Amine oxidase [flavin-containing] B (Rattus norvegicus): reported pIC50 for various compounds.
Sequence (P19643 whole entry): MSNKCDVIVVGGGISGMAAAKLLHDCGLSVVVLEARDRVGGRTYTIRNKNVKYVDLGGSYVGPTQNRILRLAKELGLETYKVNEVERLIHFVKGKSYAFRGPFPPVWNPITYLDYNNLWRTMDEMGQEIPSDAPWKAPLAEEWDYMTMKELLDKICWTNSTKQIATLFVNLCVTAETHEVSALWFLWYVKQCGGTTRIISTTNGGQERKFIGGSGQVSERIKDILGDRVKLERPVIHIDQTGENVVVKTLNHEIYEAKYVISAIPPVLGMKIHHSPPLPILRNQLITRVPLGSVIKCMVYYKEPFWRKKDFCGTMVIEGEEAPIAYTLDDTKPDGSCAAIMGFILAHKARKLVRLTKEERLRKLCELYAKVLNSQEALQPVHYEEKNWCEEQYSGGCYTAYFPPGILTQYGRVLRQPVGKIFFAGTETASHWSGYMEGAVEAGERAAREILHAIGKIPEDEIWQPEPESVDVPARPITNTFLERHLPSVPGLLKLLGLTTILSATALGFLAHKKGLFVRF
On this scale, pIC50 is minus log10 of a concentration expressed in M (mol/L).

Observe how each entry below is paired with its result.
In [3]: df
Out[3]:
                               query_smiles                            assayed_target  readout_value
0  Cc1cc(=O)oc2cc(OCc3ccc(CN(C)Cc4cccc(Cl)c4)cc3)ccc12  Amine oxidase [flavin-containing] B (Rattus norvegicus)           5.30
1  CCN(CCCCCCOc1ccc2c(C)c(C)c(=O)oc2c1)Cc1ccccc1  Amine oxidase [flavin-containing] B (Rattus norvegicus)           6.14
2  Cc1c(C)c2ccc(OCCCCCCN(C)Cc3ccccc3)cc2oc1=O  Amine oxidase [flavin-containing] B (Rattus norvegicus)           5.77
3      CN(C)Cc1cccc(COc2ccc3ccc(=O)oc3c2)c1  Amine oxidase [flavin-containing] B (Rattus norvegicus)           5.49
4  Cc1cc(=O)oc2cc(OCc3ccc(CN(C)Cc4ccccc4)cc3)ccc12  Amine oxidase [flavin-containing] B (Rattus norvegicus)           5.39

pIC50 measured on Cc1cc2ccc(OCc3ccc(CN(C)Cc4ccccc4)cc3)cc2oc1=O = 5.62

pIC50 measured on CN(C)Cc1ccc(COc2ccc3ccc(=O)oc3c2)cc1 = 5.43

pIC50 measured on CCN(CCCOc1ccc2c(C)c(C)c(=O)oc2c1)Cc1ccccc1 = 6.01

pIC50 measured on Cc1c(C)c2ccc(OCCCCCN(C)Cc3cccc(C#N)c3)cc2oc1=O = 5.60

pIC50 measured on Cc1cc2ccc(OCc3ccc(CN(C)Cc4ccc(C#N)cc4)cc3)cc2oc1=O = 5.77

pIC50 measured on Cc1c(C)c2ccc(OCCCCCN(C)Cc3ccc(C#N)cc3)cc2oc1=O = 5.48

pIC50 measured on Cc1c(C)c2ccc(OCCCCN(C)Cc3ccccc3)cc2oc1=O = 5.96

pIC50 measured on CCN(CCCCCOc1ccc2c(C)c(C)c(=O)oc2c1)Cc1ccccc1 = 5.11

pIC50 measured on Cc1cc2ccc(OCc3ccc(CN(C)Cc4cccc(Cl)c4)cc3)cc2oc1=O = 5.35

pIC50 measured on Cc1c(C)c2ccc(OCc3ccc(CN(C)Cc4cccc(Cl)c4)cc3)cc2oc1=O = 5.47

pIC50 measured on CN(Cc1ccc(COc2ccc3ccc(=O)oc3c2)cc1)Cc1cccc(Cl)c1 = 5.57

pIC50 measured on Cc1cc(=O)oc2cc(OCc3ccc(CN(C)Cc4ccc(C#N)cc4)cc3)ccc12 = 6.39

* * *

Target: Cholinesterase (Equus caballus)
Sequence (P81908 whole entry): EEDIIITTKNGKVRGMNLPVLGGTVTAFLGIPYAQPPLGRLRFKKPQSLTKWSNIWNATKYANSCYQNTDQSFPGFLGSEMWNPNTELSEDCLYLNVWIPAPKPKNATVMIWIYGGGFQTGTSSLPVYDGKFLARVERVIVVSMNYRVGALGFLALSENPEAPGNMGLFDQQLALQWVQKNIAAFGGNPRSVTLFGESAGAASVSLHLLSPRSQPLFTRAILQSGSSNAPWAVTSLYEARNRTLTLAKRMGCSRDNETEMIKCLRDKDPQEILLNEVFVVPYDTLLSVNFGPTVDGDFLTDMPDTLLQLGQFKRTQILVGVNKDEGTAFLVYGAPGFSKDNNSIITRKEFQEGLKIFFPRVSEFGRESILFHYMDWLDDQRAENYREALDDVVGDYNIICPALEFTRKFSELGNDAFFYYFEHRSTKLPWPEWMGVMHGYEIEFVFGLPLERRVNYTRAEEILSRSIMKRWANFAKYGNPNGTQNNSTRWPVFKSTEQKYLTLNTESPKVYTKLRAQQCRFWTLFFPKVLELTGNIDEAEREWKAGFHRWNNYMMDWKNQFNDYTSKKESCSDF
Experiment: Inhibition of equine serum BuChE by spectrophotometric Ellman's method
As shown below, each of these compounds has a reported IC50 value.
Reply numerically in µM, unit not repeated.

In [3]: df
Out[3]:
                               query_smiles  readout_value
0  CN(Cc1ccc(C#N)cc1)Cc1ccc(COc2ccc3ccc(=O)oc3c2)cc1            4.4
1  COc1cccc(CN(C)Cc2cccc(COc3ccc4ccc(=O)oc4c3)c2)c1           0.88
2  CN(Cc1ccc(COc2ccc3ccc(=O)oc3c2)cc1)Cc1cccc(Cl)c1            1.2
3  CN(Cc1ccccc1)Cc1ccc(COc2ccc3ccc(=O)[nH]c3c2)cc1            1.7

IC50 measured on Cc1c(C)c2ccc(OCCCCCN(C)Cc3cccc(Cl)c3)cc2oc1=O = 2.6

IC50 measured on COc1cccc(CN(C)Cc2ccc(COc3ccc4ccc(=O)oc4c3)cc2)c1 = 1.4

IC50 measured on Cc1c(C)c2ccc(OCc3ccc(CN(C)Cc4ccccc4)cc3)cc2oc1=O = 0.69

IC50 measured on CN(C)Cc1cccc(COc2ccc3ccc(=O)oc3c2)c1 = 5.3

* * *

System: MDR1
Assay: Efflux ratio of apparent permeability from basolateral to apical side to apical to basolateral side in MDCK2 cells expressing MDR1 at 200 ug/ml by UV-visible spectroscopy
Type: ADME, cell-based, Canis lupus familiaris, MDCK-II
Conditions: dog, MDCK-MDR1
measure_name: efflux ratio at 200 ug/ml

efflux ratio at 200 ug/ml measured on CN(Cc1ccccc1)Cc1ccc(COc2ccc3c(CO)cc(=O)oc3c2)cc1.Cl = 1.77

* * *

As shown below, each of these compounds has a reported inhibition at 10 µM value.
Biological target: Amine oxidase [flavin-containing] A (Rattus norvegicus)
Sequence (P21396 whole entry): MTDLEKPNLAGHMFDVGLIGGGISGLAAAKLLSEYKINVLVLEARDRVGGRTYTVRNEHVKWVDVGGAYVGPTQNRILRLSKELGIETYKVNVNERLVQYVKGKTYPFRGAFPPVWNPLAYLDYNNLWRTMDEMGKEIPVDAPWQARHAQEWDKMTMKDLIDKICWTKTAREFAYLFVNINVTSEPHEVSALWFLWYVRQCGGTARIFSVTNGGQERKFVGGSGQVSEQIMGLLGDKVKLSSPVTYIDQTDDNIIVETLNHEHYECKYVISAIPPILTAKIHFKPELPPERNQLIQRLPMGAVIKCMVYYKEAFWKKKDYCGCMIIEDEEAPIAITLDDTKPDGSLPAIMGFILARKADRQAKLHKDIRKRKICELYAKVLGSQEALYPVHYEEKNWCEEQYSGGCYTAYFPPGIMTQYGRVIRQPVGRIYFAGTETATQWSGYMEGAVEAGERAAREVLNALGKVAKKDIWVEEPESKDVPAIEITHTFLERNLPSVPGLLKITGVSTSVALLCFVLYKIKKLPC
Experiment: Inhibition of rat brain MAO-A using kynuramine substrate […] at 10 uM by spectrophotometric assay
Reply numerically in %, unit not repeated.

>>> print(df.to_string())
                               query_smiles  value_units  readout_value
0  Cc1cc2ccc(OCc3ccc(CN(C)Cc4ccc(C#N)cc4)cc3)cc2oc1=O            %             15
1  Cc1c(C)c2ccc(OCCCCCN(C)Cc3cccc(Cl)c3)cc2oc1=O            %             42
2    CCN(CC)Cc1ccc(COc2ccc3ccc(=O)oc3c2)cc1            %              9
3  Cc1cc(=O)oc2cc(OCc3ccc(CN(C)Cc4ccccc4)cc3)ccc12            %             10
4    CCN(CC)Cc1cccc(COc2ccc3ccc(=O)oc3c2)c1            %             43

inhibition at 10 µM measured on CN(Cc1ccccc1)Cc1ccc(COc2ccc3ccc(=O)[nH]c3c2)cc1 = 10

inhibition at 10 µM measured on CN(Cc1ccc(COc2ccc3c(CO)cc(=O)oc3c2)cc1)Cc1cccc(Cl)c1 = 0

inhibition at 10 µM measured on Cc1c(C)c2ccc(OCCCN(C)Cc3ccccc3)cc2oc1=O = 35

inhibition at 10 µM measured on COc1cccc(CN(C)Cc2ccc(COc3ccc4ccc(=O)oc4c3)cc2)c1 = 20

inhibition at 10 µM measured on CN(Cc1ccc(COc2ccc3ccc(=O)oc3c2)cc1)Cc1cccc(C#N)c1 = 5

* * *

Biological target: Amine oxidase [flavin-containing] B (Homo sapiens, UniProt P27338)
Sequence (P27338 whole entry): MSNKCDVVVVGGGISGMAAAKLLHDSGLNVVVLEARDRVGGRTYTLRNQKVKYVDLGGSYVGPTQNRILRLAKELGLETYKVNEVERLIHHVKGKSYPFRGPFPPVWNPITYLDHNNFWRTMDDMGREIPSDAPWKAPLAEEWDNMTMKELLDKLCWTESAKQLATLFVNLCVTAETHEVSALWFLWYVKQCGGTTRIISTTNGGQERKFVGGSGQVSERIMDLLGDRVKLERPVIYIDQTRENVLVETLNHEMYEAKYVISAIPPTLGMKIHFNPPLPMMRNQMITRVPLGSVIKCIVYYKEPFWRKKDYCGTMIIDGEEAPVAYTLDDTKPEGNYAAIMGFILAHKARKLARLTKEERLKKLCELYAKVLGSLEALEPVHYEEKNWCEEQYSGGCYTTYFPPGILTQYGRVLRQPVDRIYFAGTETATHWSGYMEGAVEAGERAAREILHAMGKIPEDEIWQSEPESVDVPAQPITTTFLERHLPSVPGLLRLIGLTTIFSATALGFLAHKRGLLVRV
pIC50: −log10 of the molar value.
Give MET when the value for pIC50 is at least 7. Give NOT MET when it is less.

In [3]: df
Out[3]:
                               query_smiles  category
0  Cc1cc(=O)oc2cc(OCc3ccc(CN(C)Cc4ccc(C#N)cc4)cc3)ccc12       MET
1    Cc1c(C)c2ccc(OCCCCCNCc3ccccc3)cc2oc1=O       MET
2  Cc1c(C)c2ccc(OCc3ccc(CN(C)Cc4ccccc4)cc3)cc2oc1=O       MET
3  CN(Cc1ccc(C#N)cc1)Cc1ccc(COc2ccc3ccc(=O)oc3c2)cc1       MET
4  Cc1c(C)c2ccc(OCCCCCCN(C)Cc3ccccc3)cc2oc1=O   NOT MET

Decide: is the reported value of pIC50 for CCN(CCCCCCOc1ccc2c(C)c(C)c(=O)oc2c1)Cc1ccccc1 equal to or greater than 7?
MET

Decide: is the reported value of pIC50 for CN(Cc1ccc(C#N)cc1)Cc1ccc(COc2ccc3c(CO)cc(=O)oc3c2)cc1 equal to or greater than 7?
MET

Decide: is the reported value of pIC50 for Cc1cc2ccc(OCc3ccc(CN(C)Cc4ccc(C#N)cc4)cc3)cc2oc1=O equal to or greater than 7?
MET

Decide: is the reported value of pIC50 for CN(Cc1ccc(COc2ccc3c(CO)cc(=O)oc3c2)cc1)Cc1cccc(Cl)c1 equal to or greater than 7?
MET

Decide: is the reported value of pIC50 for CN(Cc1ccccc1)Cc1ccc(COc2ccc3ccc(=O)[nH]c3c2)cc1 equal to or greater than 7?
NOT MET
